- Experimental system: Protein translocase subunit SecA (Escherichia coli (strain K12))
- Test protocol: Assay to Identify E. coli SecA ATPase Inhibitors
- Type: functional
- Set-up: scale not given: direction of the effect not stated beside the values
- Measurement conditions: 30 µM
Potency and affinity values are given separately.
Quantity name: Percent Effect (%)
// note: answer is a bare numeric in %

> print(dat)
                                compound  unit.descriptor  experimental.value
1  CCCc1nnsc1C(=O)NCC1CCN(S(C)(=O)=O)CC1                %               -4.49

# input for lookup
Sure, the documented Percent Effect for COc1ccc(CCN2CCCC(CN(C)Cc3ccc(C)o3)C2)cc1 (centres undefined) is -1.16

====

Reported Percent Effect values for a set of compounds
- Experimental system: Chromo domain-containing protein 1 (Saccharomyces cerevisiae (strain ATCC 204508 / S288c) (Baker's yeast))
- Test protocol: ScCHD-1 Enzyme Inhibition Assay; note: in the data most compounds retested in dose-response had high values
- Type: functional
- Set-up: scale not given: direction of the effect not stated beside the values
- Measurement conditions: 30 µM
// note: answer is a bare numeric in %

> print(dat)
                                   compound   quantity.name  experimental.value
1  Cc1nc(N2CCN(C(=O)c3ccsc3)CC2)c2cnn(C)c2n1  Percent Effect               -7.11
2   Cc1ccc(C(=O)N(C)Cc2cc(Br)cs2)c(=O)[nH]1  Percent Effect               -3.78

Sure, the documented Percent Effect for CC(NC(=O)CNCCn1cccn1)c1ccc2c(c1)OCCO2 (configuration not stated) is -7.52

Sure, the documented Percent Effect for CC(NC(=O)NCCNc1ncccn1)c1cccs1 (configuration not stated) is -9.75

Sure, the documented Percent Effect for O=C(Cn1c(=O)n(Cc2ccco2)c2ncccc21)NC1CCCCC1 is 53

====

- Experimental system: Protein translocase subunit SecA (Escherichia coli (strain K12))
- Test protocol: Assay to Identify E. coli SecA ATPase Inhibitors
- Assay type: functional
- Design: scale not given: direction of the effect not stated beside the values
- Measurement conditions: 30 µM
Potency and affinity values are given separately.
Quantity name: Percent Effect (%)
// note: answer is a bare numeric in %

Here is how some compounds turned out for Percent Effect.
> print(dat)
                                   compound   quantity.name  experimental.value
1  Cn1cc(C2CCCN2CCCc2nc(-c3cccs3)no2)cn1 (stereo not given)  Percent Effect              -0.777
2           COCCC(=O)N1CCc2cc(Cl)cc(Cl)c2C1  Percent Effect               -3.86
3    Cc1cc(-c2cnc(NC3CC3)nc2-c2ccc(C)o2)on1  Percent Effect               -1.85
4         Cn1ccnc1CN1CCN(c2ccc(C#N)cc2F)CC1  Percent Effect               -4.37

Sure, the documented Percent Effect for Cc1c(C2CCCN(C(=O)Cc3ccccn3)C2)n2c(nc1=O)CCC2 (stereo not given) is -4

Sure, the documented Percent Effect for CCCC1CCCN(Cc2csc(-c3cnn(C)c3)n2)CC1 (stereo not given) is -2.48

Sure, the documented Percent Effect for O=c1oc(-c2cccs2)nn1CC(O)c1ccccc1 (stereo not given) is -3.18

Sure, the documented Percent Effect for O=C(c1ccc(F)c(F)c1)N1CCCC1CN1CCCC1 (stereo not given) is -1.25

====

- Experimental system: Protein translocase subunit SecA (Escherichia coli (strain K12)) (UniProt P10408)
- Sequence (P10408 whole entry): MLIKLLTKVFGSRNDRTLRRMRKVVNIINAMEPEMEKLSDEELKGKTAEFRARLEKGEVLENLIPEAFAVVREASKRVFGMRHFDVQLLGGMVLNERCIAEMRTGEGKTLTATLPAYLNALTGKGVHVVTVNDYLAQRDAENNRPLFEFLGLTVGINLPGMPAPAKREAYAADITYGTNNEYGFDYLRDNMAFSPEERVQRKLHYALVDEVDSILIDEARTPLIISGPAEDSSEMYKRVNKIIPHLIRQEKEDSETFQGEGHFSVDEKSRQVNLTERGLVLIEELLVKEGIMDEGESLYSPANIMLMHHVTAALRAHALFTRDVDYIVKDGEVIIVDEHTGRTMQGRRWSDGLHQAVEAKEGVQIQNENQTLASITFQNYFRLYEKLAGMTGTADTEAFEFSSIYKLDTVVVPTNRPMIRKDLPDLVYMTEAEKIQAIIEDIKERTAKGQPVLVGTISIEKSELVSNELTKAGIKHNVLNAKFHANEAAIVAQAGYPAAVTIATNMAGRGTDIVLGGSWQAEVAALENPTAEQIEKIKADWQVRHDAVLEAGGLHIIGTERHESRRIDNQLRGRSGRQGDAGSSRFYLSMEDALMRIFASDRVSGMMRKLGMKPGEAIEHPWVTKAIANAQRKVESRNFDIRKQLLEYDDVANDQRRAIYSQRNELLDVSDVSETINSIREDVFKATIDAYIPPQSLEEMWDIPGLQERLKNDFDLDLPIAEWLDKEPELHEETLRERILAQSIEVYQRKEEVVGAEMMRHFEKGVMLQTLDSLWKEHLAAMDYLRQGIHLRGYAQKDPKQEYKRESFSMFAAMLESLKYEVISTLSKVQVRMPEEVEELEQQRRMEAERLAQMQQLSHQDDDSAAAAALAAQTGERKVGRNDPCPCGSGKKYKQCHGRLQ
- Test protocol: Assay to Identify E. coli SecA ATPase Inhibitors
- Format: functional
- Design: scale not given: direction of the effect not stated beside the values
- Measurement conditions: 30 µM
Potency and affinity values are given separately.
Reported Percent Effect values for a set of molecules
// note: answer is a bare numeric in %

Here is how some molecules turned out for Percent Effect.
> print(dat)
                                   molecule  experimental.value
1  Cc1cc(C)n(CC2CN(Cc3nc(-c4ccoc4)no3)CCO2)n1 (stereo unspecified)              -0.455
2  CC(NC(=O)Cn1cccn1)c1cccnc1 (stereo unspecified)               -4.41
3  CN(C)C(=O)COCc1cncc2c1CCN(Cc1cnn(C)c1)C2               -4.54
4  O=C(C1CCS(=O)(=O)C1)N1CCN(c2cnccn2)CC1 (stereo unspecified)                -5.3
5  Cc1nc(C2CCCN(C(=O)c3ccc(Cn4cccn4)o3)C2)no1 (stereo unspecified)               0.739

Sure, the documented Percent Effect for Cn1ccnc1CN1CCC2(COCCN(Cc3ccsc3)C2)C1 (stereo unspecified) is -3.36

====

- Experimental system: Tyrosyl-tRNA synthetase, putative (Trypanosoma cruzi (strain CL Brener))
- Sequence (whole entry): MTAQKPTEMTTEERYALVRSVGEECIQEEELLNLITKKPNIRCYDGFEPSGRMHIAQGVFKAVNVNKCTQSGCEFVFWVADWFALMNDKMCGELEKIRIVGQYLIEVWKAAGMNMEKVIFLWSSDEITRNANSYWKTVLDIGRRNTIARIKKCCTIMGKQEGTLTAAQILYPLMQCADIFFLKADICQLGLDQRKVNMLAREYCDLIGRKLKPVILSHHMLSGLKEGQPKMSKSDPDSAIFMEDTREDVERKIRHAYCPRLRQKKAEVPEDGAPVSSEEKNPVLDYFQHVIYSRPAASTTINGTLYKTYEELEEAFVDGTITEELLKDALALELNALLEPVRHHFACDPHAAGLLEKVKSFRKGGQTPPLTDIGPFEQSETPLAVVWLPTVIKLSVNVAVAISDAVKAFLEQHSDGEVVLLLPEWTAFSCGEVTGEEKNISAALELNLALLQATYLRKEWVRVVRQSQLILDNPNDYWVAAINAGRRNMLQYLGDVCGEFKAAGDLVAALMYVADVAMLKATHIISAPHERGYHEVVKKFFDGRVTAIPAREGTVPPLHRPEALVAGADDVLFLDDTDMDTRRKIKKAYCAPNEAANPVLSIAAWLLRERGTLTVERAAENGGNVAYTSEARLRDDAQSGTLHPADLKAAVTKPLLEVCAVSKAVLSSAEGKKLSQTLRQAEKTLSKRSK
- Test protocol: Trypanosoma cruzi tyrosyl tRNA synthetase (TcYRS) SOP
- Assay type: functional
- Design: scale not given: direction of the effect not stated beside the values
- Measurement conditions: 30 µM
Checkbox rule: Percent Effect lower than 8% = criterion met; Percent Effect not lower than 8% = criterion not met.

Record excerpt, results attached:
> print(dat)
                                   compound        label.value
1  COC(=O)c1cccc(NC(=O)CCn2nc(-c3cccs3)oc2=O)c1      criterion met
2  Cc1ncc(CN(C)CC2CCCN2c2cccnn2)s1 (stereo unspecified)      criterion met
3    CN(Cc1ccco1)Cc1ccccc1CNC(=O)c1ccc[nH]1  criterion not met

// query Field: below-cutoff. Rule: recorded Percent Effect strictly less than 8%. Subject: CN(Cc1ccccn1)C(=O)[C@]12COC[C@H]1CN(Cc1cnn(C)c1)C2
// result criterion met

// query Field: below-cutoff. Rule: recorded Percent Effect strictly less than 8%. Subject: CC1CCN(S(=O)(=O)NCCCn2cncn2)CC1
// result criterion not met

// query Field: below-cutoff. Rule: recorded Percent Effect strictly less than 8%. Subject: CC(=O)N1CCCN(C(=O)NCCc2ccc(Cl)s2)CC1
// result criterion met

====

- Experimental system: Tyrosyl-tRNA synthetase, putative (Trypanosoma cruzi (strain CL Brener))
- Sequence (whole entry): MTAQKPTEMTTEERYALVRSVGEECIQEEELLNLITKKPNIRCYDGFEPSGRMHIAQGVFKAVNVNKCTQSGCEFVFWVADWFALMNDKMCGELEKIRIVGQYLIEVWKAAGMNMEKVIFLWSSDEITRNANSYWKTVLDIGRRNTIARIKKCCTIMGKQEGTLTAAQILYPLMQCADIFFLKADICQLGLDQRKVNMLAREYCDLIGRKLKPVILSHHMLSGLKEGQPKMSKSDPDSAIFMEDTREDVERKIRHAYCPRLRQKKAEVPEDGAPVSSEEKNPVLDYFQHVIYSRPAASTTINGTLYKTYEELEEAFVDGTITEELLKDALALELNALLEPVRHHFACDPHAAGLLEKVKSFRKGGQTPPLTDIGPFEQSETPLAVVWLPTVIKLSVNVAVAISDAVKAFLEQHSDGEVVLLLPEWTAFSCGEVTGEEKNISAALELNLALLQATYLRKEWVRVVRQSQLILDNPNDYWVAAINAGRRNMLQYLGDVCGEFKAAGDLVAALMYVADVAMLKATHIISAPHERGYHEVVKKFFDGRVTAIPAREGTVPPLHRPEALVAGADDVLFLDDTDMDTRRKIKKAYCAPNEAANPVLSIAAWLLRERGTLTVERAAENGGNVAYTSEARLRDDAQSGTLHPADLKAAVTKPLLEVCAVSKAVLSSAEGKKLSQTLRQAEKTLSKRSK
- Test protocol: Trypanosoma cruzi tyrosyl tRNA synthetase (TcYRS) SOP
- Assay type: functional
- Design: scale not given: direction of the effect not stated beside the values
- Measurement conditions: 30 µM
Reported Percent Effect values for a set of compounds
// note: answer is a bare numeric in %

Lab entry: Tyrosyl-tRNA synthetase, putative (Trypanosoma cruzi (strain CL Brener)) assay, compound NS(=O)(=O)c1ccc(NC(=O)CSc2ccc3c(c2)CCC3)cc1 , Percent Effect = -13.4

Lab entry: Tyrosyl-tRNA synthetase, putative (Trypanosoma cruzi (strain CL Brener)) assay, compound COc1cc(CN2CCN(c3cccc(OC)c3)C(=O)C2)cc(OC)c1 , Percent Effect = 2.56

Lab entry: Tyrosyl-tRNA synthetase, putative (Trypanosoma cruzi (strain CL Brener)) assay, compound CC(=O)N1CCN(c2ccc3ccc(C(=O)NC4CCCC4)cn23)CC1 , Percent Effect = 15

Lab entry: Tyrosyl-tRNA synthetase, putative (Trypanosoma cruzi (strain CL Brener)) assay, compound Cc1ccc(C(=O)N2CCN(C(=O)Nc3ccccn3)CC2)o1 , Percent Effect = -4.71

Lab entry: Tyrosyl-tRNA synthetase, putative (Trypanosoma cruzi (strain CL Brener)) assay, compound Cc1nc(C)n(CC2CCCCN2CC(=O)Nc2nncs2)n1 (stereo not given) , Percent Effect = 11.1

Lab entry: Tyrosyl-tRNA synthetase, putative (Trypanosoma cruzi (strain CL Brener)) assay, compound N#Cc1cccc(SCCS(N)(=O)=O)c1 , Percent Effect = 5.13

Lab entry: Tyrosyl-tRNA synthetase, putative (Trypanosoma cruzi (strain CL Brener)) assay, compound Cc1cccc(C(=O)N(C)Cc2cc(Br)cs2)n1 , Percent Effect = 7.79

Lab entry: Tyrosyl-tRNA synthetase, putative (Trypanosoma cruzi (strain CL Brener)) assay, compound CCN1CCN(C(=O)c2ccn(C)c(=O)c2)CC1 , Percent Effect = -5.06

Lab entry: Tyrosyl-tRNA synthetase, putative (Trypanosoma cruzi (strain CL Brener)) assay, compound Cc1ccc(NC2CCN(C(=O)Cc3cccc(F)c3)CC2)nn1 , Percent Effect = 28.4

Lab entry: Tyrosyl-tRNA synthetase, putative (Trypanosoma cruzi (strain CL Brener)) assay, compound Cc1ccc2ncnc(N3CCOCC3c3c(C)nn(C)c3C)c2c1 (stereo not given) , Percent Effect = 8.64

Lab entry: Tyrosyl-tRNA synthetase, putative (Trypanosoma cruzi (strain CL Brener)) assay, compound CCc1nc(C2CCCN2Cc2nnc(Cc3ccccc3)o2)no1 (stereo not given) , Percent Effect = 2.35

Lab entry: Tyrosyl-tRNA synthetase, putative (Trypanosoma cruzi (strain CL Brener)) assay, compound Cc1cnn(CC2CCCCN2C(=O)Cc2csc(C)n2)c1 (stereo not given) , Percent Effect = -2.53

Lab entry: Tyrosyl-tRNA synthetase, putative (Trypanosoma cruzi (strain CL Brener)) assay, compound CCOc1cc(CN(C)CCOC)ccc1OC(F)F , Percent Effect = -1.24
